Measured IC50, listed per entry for reference.
Biological target: HCV RdRp (NS5B RNA-dependent RNA polymerase) (Hepatitis C virus genotype 1b, UniProt P26663)
Construct: The HCV NS5B protein is the viral RdRp; made in house; host or cells: insect cells infected with recombinant baculovirus
Sequence (P26663 2420-3010): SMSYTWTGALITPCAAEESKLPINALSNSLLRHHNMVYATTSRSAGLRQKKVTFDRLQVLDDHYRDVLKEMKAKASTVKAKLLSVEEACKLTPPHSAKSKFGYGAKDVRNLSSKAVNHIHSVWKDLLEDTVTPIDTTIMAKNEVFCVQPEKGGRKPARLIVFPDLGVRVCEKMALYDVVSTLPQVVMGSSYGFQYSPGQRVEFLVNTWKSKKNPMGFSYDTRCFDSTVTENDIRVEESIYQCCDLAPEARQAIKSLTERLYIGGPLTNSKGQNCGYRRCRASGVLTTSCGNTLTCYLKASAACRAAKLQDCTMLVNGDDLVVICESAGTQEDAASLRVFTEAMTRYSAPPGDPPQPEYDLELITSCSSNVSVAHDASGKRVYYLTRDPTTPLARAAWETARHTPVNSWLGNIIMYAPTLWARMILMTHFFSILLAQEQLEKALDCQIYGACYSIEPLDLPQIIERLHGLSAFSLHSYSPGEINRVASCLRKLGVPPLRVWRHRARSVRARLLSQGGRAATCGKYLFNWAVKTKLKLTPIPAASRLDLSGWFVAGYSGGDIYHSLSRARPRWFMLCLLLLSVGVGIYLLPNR
Assay: Inhibition of hepatitis C virus RdRp (poly(A)/oligo(U), [3H]UTP incorporation)
Type: biochemical
Conditions: Tables I-VIII; 20 nM NS5B, 1 hour at 22° C.; read-out: IC 50 (μM), HCV-polymerase

| mol | result type | result |
| --- | --- | --- |
| Cc1ccc(C(=O)C=C(O)C(=O)O)cc1 | IC50 | 2.8 µM |
| O=C(O)C(O)=CC(=O)c1cccc(NS(=O)(=O)c2cccc(Cl)c2Cl)c1 | IC50 | 0.2 µM |
| N#CCCCOc1ccc(-c2ccccc2)cc1C(=O)C=C(O)C(=O)O | IC50 | 13.6 µM |
| O=C(O)C(O)=CC(=O)c1cccc(OCc2cc(C(=O)O)ccc2Cl)c1 | IC50 | 1 µM |
| O=C(O)C(O)=CC(=O)c1cccc(NS(=O)(=O)c2cccs2)c1 | IC50 | 7 µM |
| O=C(O)C(O)=CC(=O)c1cccc(NS(=O)(=O)c2cccc(Cl)c2)c1 | IC50 | 0.78 µM |

Exercise: Returns the measured IC50 for the input compound. Input: O=C(O)C(O)=CC(=O)c1ccccc1OCc1ccccc1
Key: 44 µM

Exercise: Would you kindly repeat that for O=C(O)C(O)=CC(=O)c1cccc(OCc2ccc(-c3ccccc3)cc2)c1 ?
Key: 50 µM

Exercise: Would you kindly repeat that for O=C(O)C(O)=CC(=O)C1(c2ccccc2)CCN(S(=O)(=O)c2cccc3cccnc23)CC1 ?
Key: 10 µM

---

Molecular target: HCV RdRp (NS5B RNA-dependent RNA polymerase) (Hepatitis C virus genotype 1b, UniProt P26663)
Construct: The HCV NS5B protein is the viral RdRp; made in house; host or cells: insect cells infected with recombinant baculovirus
Experiment: Inhibition of hepatitis C virus RdRp (poly(A)/oligo(U), [3H]UTP incorporation)
Format: biochemical
Conditions: Tables I-VIII; 20 nM NS5B, 1 hour at 22° C.; read-out: IC 50 (μM), HCV-polymerase
Method: In initial tests, the compounds were tested to see if they were effective as inhibitors of the RNA-dependent RNA polymerase (RdRp) of hepatitis C virus (HCV). […] WO96/37619 describes the production of recombinant HCV RdRp from insect cells infected with recombinant baculovirus encoding the enzyme. […] Incorporation of tritiated UTP is quantified by measuring acid-insoluble radioactivity. […] Incorporation of radioactive UMP was measured as follows. […]
result type: log10(IC50) (log10 of the value in µM)
In plain terms, each number is the log10 of measured IC50 in µM.

Some entries whose results are on file:
| molecule | result type | numeric result |
| --- | --- | --- |
| O=C(O)C(O)=CC(=O)c1ccsc1Sc1ccc(F)cc1 [Example 234] | log10(IC50) | 1.16 |
| O=C(O)C(O)=CC(=O)c1cccc(OC/C=C/c2ccccc2)c1 [Example 83] | log10(IC50) | 0.97 |
| O=C(O)C(O)=CC(=O)c1cccc(-c2ccccc2)c1 [Example 3] | log10(IC50) | 1.45 |
| N#Cc1ccc(S(=O)(=O)Nc2cccc(C(=O)C=C(O)C(=O)O)c2)cc1 [Example 74] | log10(IC50) | 0.56 |

Exercise: Returns the measured log10(IC50) for the input molecule. Input: O=C(O)C(O)=CC(=O)c1cccc(S(=O)(=O)Nc2ccc(Cl)cc2)c1 [Example 145]
Key: 0.08

Exercise: Would you kindly repeat that for O=C(O)C(O)=CC(=O)c1ccccc1C(F)(F)F [Example 6] ?
Key: 1.26
